- protocol_conditions: in n-butanol, 329.21 K
observation_type: solubility (mole fraction)

- smiles_notation: "COc1cc(Cc2cnc(N)nc2N)cc(OC)c1OC"
  observation_type: "solubility (mole fraction)"
  quantitative_readout: 0.00306

====

- protocol_conditions: in sec-butanol, 308.84 K
observation_type: solubility (mole fraction)

- smiles_notation: "COc1cc(Cc2cnc(N)nc2N)cc(OC)c1OC"
  quantitative_readout: 0.00101

====

- protocol_conditions: in ethanol, 330.66 K

- smiles_notation: "COc1cc(Cc2cnc(N)nc2N)cc(OC)c1OC"
  solubility (mole fraction): 0.00309

====

- protocol_conditions: in methanol, 288.09 K
observation_type: solubility (mole fraction)

- smiles_notation: "COc1cc(Cc2cnc(N)nc2N)cc(OC)c1OC"
  result: 0.0012

====

- protocol_conditions: in methanol, 304.24 K
observation_type: solubility (mole fraction)

- smiles_notation: "COc1cc(Cc2cnc(N)nc2N)cc(OC)c1OC"
  observation_type: "solubility (mole fraction)"
  quantitative_readout: 0.00217

====

- protocol_conditions: in sec-butanol, 276.85 K

- smiles_notation: "COc1cc(Cc2cnc(N)nc2N)cc(OC)c1OC"
  solubility (mole fraction): 0.000153

====

- protocol_conditions: in acetone, 292.94 K

- smiles_notation: "COc1cc(Cc2cnc(N)nc2N)cc(OC)c1OC"
  solubility (mole fraction): 0.00076

====

- protocol_conditions: in acetone, 297.96 K

- smiles_notation: "COc1cc(Cc2cnc(N)nc2N)cc(OC)c1OC"
  solubility (mole fraction): 0.00089

====

- protocol_conditions: in n-butanol, 298.46 K

- smiles_notation: "COc1cc(Cc2cnc(N)nc2N)cc(OC)c1OC"
  solubility (mole fraction): 0.000635

====

- protocol_conditions: in methanol, 333.73 K
observation_type: solubility (mole fraction)

- smiles_notation: "COc1cc(Cc2cnc(N)nc2N)cc(OC)c1OC"
  observation_type: "solubility (mole fraction)"
  result: 0.0072

====

- protocol_conditions: in THF, 281.81 K
observation_type: solubility (mole fraction)

- smiles_notation: "COc1cc(Cc2cnc(N)nc2N)cc(OC)c1OC"
  quantitative_readout: 0.000714

====

- protocol_conditions: in ethanol, 311.35 K
observation_type: solubility (mole fraction)

- smiles_notation: "COc1cc(Cc2cnc(N)nc2N)cc(OC)c1OC"
  result: 0.00124

Value source: BigSolDB 2.1
